Reference source for all entries: paper PMC3539767

subject.of.test: rat mGlu5 (Rattus norvegicus)
run.description: calcium mobilization PAM assay, high-expressing rat mGlu5 HTS cell line
experimental.readout: pEC50
One number for each entry, as −log10 of the molar value.

Which pEC50 reading was recorded for the molecule CS(=O)(=O)N(CC(=O)Nc1cccc(Cl)c1)c1ccccc1Cl [compound 9] ?
7.01

====

subject.of.test: rat mGlu5 (Rattus norvegicus, UniProt P31424)
Sequence (P31424 21-1203): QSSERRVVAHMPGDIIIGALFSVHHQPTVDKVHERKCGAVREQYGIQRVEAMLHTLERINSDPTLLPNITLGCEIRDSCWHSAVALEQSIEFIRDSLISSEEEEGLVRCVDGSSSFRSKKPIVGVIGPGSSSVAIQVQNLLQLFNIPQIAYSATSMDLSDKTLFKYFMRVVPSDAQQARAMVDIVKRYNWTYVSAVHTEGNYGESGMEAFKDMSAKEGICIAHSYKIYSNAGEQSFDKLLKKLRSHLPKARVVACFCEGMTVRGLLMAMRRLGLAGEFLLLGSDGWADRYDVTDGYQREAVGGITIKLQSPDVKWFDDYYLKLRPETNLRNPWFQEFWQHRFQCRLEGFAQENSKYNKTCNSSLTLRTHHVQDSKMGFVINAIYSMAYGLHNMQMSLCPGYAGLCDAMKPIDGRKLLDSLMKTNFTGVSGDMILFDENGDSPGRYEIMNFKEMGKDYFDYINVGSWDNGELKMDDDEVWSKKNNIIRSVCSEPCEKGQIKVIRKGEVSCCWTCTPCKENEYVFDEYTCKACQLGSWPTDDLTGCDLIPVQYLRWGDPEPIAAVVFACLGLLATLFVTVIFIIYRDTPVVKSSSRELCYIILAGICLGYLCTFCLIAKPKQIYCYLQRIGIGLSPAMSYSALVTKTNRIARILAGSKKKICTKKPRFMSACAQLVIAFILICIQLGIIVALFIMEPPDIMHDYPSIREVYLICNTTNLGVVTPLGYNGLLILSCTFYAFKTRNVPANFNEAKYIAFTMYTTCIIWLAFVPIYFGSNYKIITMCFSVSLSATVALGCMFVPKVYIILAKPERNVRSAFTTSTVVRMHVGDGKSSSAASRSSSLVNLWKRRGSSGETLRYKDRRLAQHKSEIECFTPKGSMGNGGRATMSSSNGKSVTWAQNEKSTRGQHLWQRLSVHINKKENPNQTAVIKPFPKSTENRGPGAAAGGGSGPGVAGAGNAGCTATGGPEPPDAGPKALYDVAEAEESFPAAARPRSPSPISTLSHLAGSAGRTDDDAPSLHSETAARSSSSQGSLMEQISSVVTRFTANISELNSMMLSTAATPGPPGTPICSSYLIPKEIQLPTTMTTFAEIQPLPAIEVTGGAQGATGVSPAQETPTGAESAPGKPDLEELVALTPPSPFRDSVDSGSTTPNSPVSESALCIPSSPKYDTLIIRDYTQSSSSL
run.description: calcium mobilization PAM assay, high-expressing rat mGlu5 HTS cell line
Type: cell-based
measurement.setup: rat mGlu5 cell line
experimental.readout: % Glu Max (rmGlu5) (% Glu Max)
Numbers only, in % Glu Max.

Provide value of % Glu Max (rmGlu5) for this record tested with rat mGlu5 (Rattus norvegicus, UniProt P31424): CS(=O)(=O)N(CC(=O)Nc1ccc(F)cn1)c1ccccc1Cl [15b]
66

Provide value of % Glu Max (rmGlu5) for this record tested with rat mGlu5 (Rattus norvegicus, UniProt P31424): CS(=O)(=O)N(CC(=O)Nc1cccnc1F)c1ccccc1Cl [15c]
64

Provide value of % Glu Max (rmGlu5) for this record tested with rat mGlu5 (Rattus norvegicus, UniProt P31424): CS(=O)(=O)N(CC(=O)Nc1cccc(Cl)c1)c1ccccc1Cl
74

Continuing:
Provide value of % Glu Max (rmGlu5) for this record tested with rat mGlu5 (Rattus norvegicus, UniProt P31424): CS(=O)(=O)N(CC(=O)Nc1ccccc1)c1ccccc1Cl [15a]
61
